tested on: Staphylococcus aureus; test: Antibacterial activity against Staphylococcus aureus Smith by micro-broth dilution method; assay type: functional; details: Staphylococcus aureus, Smith; read-out: MIC
So basically: is MIC under 0.2 µg/mL? Then Fulfilled. Not under? Then Not fulfilled.

* COc1ccc2ncc(F)c(CC(C)(O)C34CCC(NCc5ccc6c(n5)NC(=O)CO6)(CC3)CO4)c2n1 (racemic) | Fulfilled
* COc1ccc2ncc(F)c(CC(NOC(C)=O)C34CCC(NCc5ccc6c(n5)NC(=O)CO6)(CC3)CO4)c2n1 (racemic) | Not fulfilled
* COc1ccc2ncc(F)c(CC(O)(C(F)(F)F)C34CCC(NCc5ccc6c(n5)NC(=O)CO6)(CC3)CO4)c2n1 (racemic) | Not fulfilled
* COc1ccc2ncc(F)c(CC(=O)C34CCC(NCc5ccc6c(n5)NC(=O)CO6)(CC3)CO4)c2n1 | Fulfilled
* COc1ccc2ncc(F)c(CC(F)C34CCC(NCc5ccc6c(n5)NC(=O)CO6)(CC3)CO4)c2n1 (racemic) | Not fulfilled
* COc1ccc2ncc(F)c([C@@H](O)[C@H](O)C34CCC(NCc5ccc6c(n5)NC(=O)CO6)(CC3)CO4)c2n1 | Not fulfilled
* COc1ccc2ncc(F)c(C/C(=N\O)C34CCC(NCc5ccc6c(n5)NC(=O)CO6)(CC3)CO4)c2n1 | Not fulfilled
* COc1ccc2ncc(F)c(C[C@H](OC)C34CCC(NCc5ccc6c(n5)NC(=O)CO6)(CC3)CO4)c2n1 | Not fulfilled

Cited source for all entries: ChEMBL document CHEMBL3751822
